- subject-of-test: human cathepsin S (hCatS) (Homo sapiens)
- Construct: gene CTSS
- Sequence (P25774 115-331): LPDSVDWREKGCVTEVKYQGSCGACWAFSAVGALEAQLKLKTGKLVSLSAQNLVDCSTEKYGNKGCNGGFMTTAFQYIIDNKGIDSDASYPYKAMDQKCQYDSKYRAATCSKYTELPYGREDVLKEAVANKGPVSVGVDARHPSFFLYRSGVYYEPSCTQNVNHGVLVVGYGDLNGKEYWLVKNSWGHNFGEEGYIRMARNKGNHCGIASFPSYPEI
- experiment-notes: fluorogenic enzyme inhibition assay, Cbz-Val-Val-Arg-AMC substrate; Ki from IC50
- Assay type: biochemical
reported-property: Ki (nM)

1) CCCC[C@H](NC(=O)OCc1ccccc1)C(=O)N[C@H](/C=C/C(C)=O)C[C@@H]1CCNC1=O : 58.8

[1] CC(=O)/C=C/[C@H](C[C@@H]1CCNC1=O)NC(=O)[C@H](CC1CCCCC1)NC(=O)OCc1ccccc1
[2] CC(=O)/C=C/[C@H](C[C@@H]1CCNC1=O)NC(=O)[C@H](CC1CC1)NC(=O)OCc1ccccc1
Lookup: Kindly identify the item with the lower Ki figure among these two: 1 and 2 Reply with the label of the item you choose.
Found: 1
(1: 10.7 nM, 2: 45.1 nM)

Source listed as paper PMC12566624.
